Data credit: patent US20100061928A1

Test system: grafted B16 F0 murine melanoma tumour
Experimental details: Biodistribution of the ^125I-labelled molecules in the melanoma-bearing mouse (autoradiography of whole-body sections)
Run parameters: 3 H after i.v. administration, ^125I-labelled compound
Counter-ions that a name gives are not always drawn.
Recorded endpoint: Concentration of radioactivity, brain, Mean (% ID/g)
Expressed in % ID/g, but write only the number.

So, CCN(CC)CCNC(=O)c1ccc(I)nc1 [compound 7, dihydrochloride] ? Its Concentration of radioactivity, brain, Mean was 0.22

Note to self: Concentration of radioactivity, brain, Mean recorded for "CCN(CC)CCNC(=O)c1ccc2cc(I)ccc2n1.Cl.Cl" was 0.83

The reported value for CCN(CC)CCNC(=O)c1nc2ccccn2c1I [compound 16, dihydrochloride] in terms of Concentration of radioactivity, brain, Mean is 0.36

Value of Concentration of radioactivity, brain, Mean reported for the compound CCN(CC)CCNC(=O)c1ccc2cc(I)ccc2c1 [compound 3, hydrochloride] is 0.78

Item: CCN(CC)CCNC(=O)c1cc2cc(I)ccc2[nH]1 [compound 10, hydrochloride] | Concentration of radioactivity, brain, Mean: 1.73

* * *

System: grafted B16 F0 murine melanoma tumour
Experimental details: Biodistribution of the ^125I-labelled molecules in the melanoma-bearing mouse (autoradiography of whole-body sections)
Run parameters: 1 H after i.v. administration, ^125I-labelled compound
Structures can show the parent of a compound that is named as a salt.
Classification field: rule met = Concentration of radioactivity, Sc (stomach contents), Mean at or over 30 % ID/g; rule not met = Concentration of radioactivity, Sc (stomach contents), Mean under 30 % ID/g.

In: Could you tell me if the measured Concentration of radioactivity, Sc (stomach contents), Mean of "CCN(CC)CCNC(=O)c1nc2ccc(I)cc2[nH]1.Cl.Cl" reaches 30 % ID/g or more?
Out: rule not met

In: Quick check: does "CCN(CC)CCNC(=O)c1cc2c(I)cccc2s1.Cl" have Concentration of radioactivity, Sc (stomach contents), Mean greater than or equal to 30 % ID/g?
Out: rule not met

In: Is Concentration of radioactivity, Sc (stomach contents), Mean for CCN(CC)CCNC(=O)c1nc2ccccn2c1I [compound 16, dihydrochloride] at or above 30 % ID/g?
Out: rule not met

In: Does CCN(CC)CCNC(=O)c1cc2cc(I)ccc2[nH]1 [compound 10, hydrochloride] have a reported Concentration of radioactivity, Sc (stomach contents), Mean of at least 30 % ID/g?
Out: rule met

In: State whether the measured Concentration of radioactivity, Sc (stomach contents), Mean reaches 30 % ID/g, counting equality as reaching it, for CCN(CC)CCNC(=O)c1ccc2cc(I)ccc2c1 [compound 3, hydrochloride]
Out: rule not met

In: Is Concentration of radioactivity, Sc (stomach contents), Mean at least 30 % ID/g? Consider CCN(CC)CCNC(=O)c1ccc(I)nc1 [compound 7, dihydrochloride]
Out: rule met

In: Determine whether measured Concentration of radioactivity, Sc (stomach contents), Mean meets or exceeds 30 % ID/g for "CCN(CC)CCNC(=O)c1ccc2cc(I)ccc2n1.Cl.Cl"
Out: rule met

* * *

Tested on: grafted B16 F0 murine melanoma tumour
Experimental details: Biodistribution of the ^125I-labelled molecules in the melanoma-bearing mouse (autoradiography of whole-body sections)
Run parameters: Sc; 3 H
Counter-ions that a name gives are not always drawn.
For each record, write down the corresponding Biodistribution, Mean, Sc.

Reported grafted B16 F0 murine melanoma tumour Biodistribution, Mean, Sc for item CCN(CC)CCNC(=O)c1c[nH]c2ccc(I)cc2c1=O [compound 35, dihydrochloride] was 9.93

Case CCN(CC)CCNC(=O)c1cc2c(I)cccc2cn1 [compound 39, dihydrochloride] , grafted B16 F0 murine melanoma tumour, Biodistribution, Mean, Sc recorded as 19.05

Observed Biodistribution, Mean, Sc, grafted B16 F0 murine melanoma tumour, "CCN(CC)CCNC(=O)c1cnc2cc(I)ccc2n1.Cl.Cl" : 20.33

Field Biodistribution, Mean, Sc (grafted B16 F0 murine melanoma tumour), entry CCN(CC)CCNC(=O)c1cccc2cc3cc(I)ccc3nc12 [compound 111, dihydrochloride] : 9.56

Bench note, grafted B16 F0 murine melanoma tumour: "CCN(CC)CCNC(=O)c1ccc2cncc(I)c2n1.Cl.Cl" , Biodistribution, Mean, Sc reads 9.76

# lookup: CCCN(CCC)CCCCNC(=O)c1ccc2cc(I)ccc2n1 [compound 49, dihydrochloride] on grafted B16 F0 murine melanoma tumour, Biodistribution, Mean, Sc = 24.89

* * *

Tested on: grafted B16 F0 murine melanoma tumour
Experimental details: Biodistribution of the ^125I-labelled molecules in the melanoma-bearing mouse (autoradiography of whole-body sections)
Run parameters: thyroid; 24 H
Counter-ions that a name gives are not always drawn.
Task for the reader: assign each of the following molecules its reported Biodistribution, Mean, thyroid.
Reply briefly: the number, and no unit.

CCN(CC)CCNC(=O)c1cccc2cc3cc(I)ccc3nc12 [compound 111, dihydrochloride] yielded Biodistribution, Mean, thyroid of 40.73

The measured Biodistribution, Mean, thyroid associated with CCN(CC)CCNC(=O)c1c[nH]c2ccc(I)cc2c1=O [compound 35, dihydrochloride] reads 5.09

In plain terms, CCN(CC)CCNC(=O)c1cc2c(I)cccc2cn1 [compound 39, dihydrochloride] has a documented Biodistribution, Mean, thyroid of 88.65

The molecule identified as CCN(CC)CCNC(=O)c1cnc2cc(I)ccc2n1.Cl.Cl [compound 46] registered its Biodistribution, Mean, thyroid at 94.22

Per the records, this molecule ( CCN(CC)CCNC(=O)c1ccc2cncc(I)c2n1.Cl.Cl [compound 142] ) has Biodistribution, Mean, thyroid equal to 115.66

* * *

Tested on: grafted B16 F0 murine melanoma tumour
Experimental details: Biodistribution of the ^125I-labelled molecules in the melanoma-bearing mouse (autoradiography of whole-body sections)
Run parameters: 3 H after i.v. administration, ^125I-labelled compound
Structures can show the parent of a compound that is named as a salt.
Recorded endpoint: Concentration of radioactivity, blood (measured in the heart cavity), Mean (% ID/g)
Your answer should be a plain number; it is taken to be in % ID/g.

Looking up CCN(CC)CCNC(=O)c1cc2cc(I)ccc2[nH]1 [compound 10, hydrochloride] , I found its Concentration of radioactivity, blood (measured in the heart cavity), Mean recorded as 0.79

The compound listed as CCN(CC)CCNC(=O)c1ccc2cc(I)ccc2c1 [compound 3, hydrochloride] has a reported Concentration of radioactivity, blood (measured in the heart cavity), Mean of 1.77

Notebook: "CCN(CC)CCNC(=O)c1ccc2cc(I)ccc2n1.Cl.Cl" , Concentration of radioactivity, blood (measured in the heart cavity), Mean read as 5.57

Record CCN(CC)CCNC(=O)c1ccc(I)nc1 [compound 7, dihydrochloride] , field Concentration of radioactivity, blood (measured in the heart cavity), Mean: 4.22

Entry CCN(CC)CCNC(=O)c1nc2ccccn2c1I [compound 16, dihydrochloride] , Concentration of radioactivity, blood (measured in the heart cavity), Mean reported as 3.93

compound "CCN(CC)CCNC(=O)c1nc2ccc(I)cc2[nH]1.Cl.Cl" , Concentration of radioactivity, blood (measured in the heart cavity), Mean observed: 1.33

* * *

System: grafted B16 F0 murine melanoma tumour
Experimental details: Biodistribution of the ^125I-labelled molecules in the melanoma-bearing mouse (autoradiography of whole-body sections)
Run parameters: muscle; 3 H
Where a name gives a salt, the structure may show the parent alone.
Please go through the items and note down their Biodistribution, Mean, muscle.
// response body must contain only the number

Looking up CCN(CC)CCNC(=O)c1c[nH]c2ccc(I)cc2c1=O [compound 35, dihydrochloride] , I see its Biodistribution, Mean, muscle listed as 0.13

Summary for this compound, CCCN(CCC)CCCCNC(=O)c1ccc2cc(I)ccc2n1 [compound 49, dihydrochloride] : Biodistribution, Mean, muscle is 1.41

response.value for "CCN(CC)CCNC(=O)c1ccc2cncc(I)c2n1.Cl.Cl" (field: Biodistribution, Mean, muscle) = 0.43

get_value(item= CCN(CC)CCNC(=O)c1cc2c(I)cccc2cn1 [compound 39, dihydrochloride] , readout=Biodistribution, Mean, muscle) returns 0.43

Sure, the documented Biodistribution, Mean, muscle for CCN(CC)CCNC(=O)c1cccc2c(Nc3ccc(NS(C)(=O)=O)cc3OC)c3cc(I)ccc3nc12 [compound 129, dihydrochloride] is 0.48

Kindly note the recorded Biodistribution, Mean, muscle for "CCN(CC)CCNC(=O)c1cnc2cc(I)ccc2n1.Cl.Cl" , which is 0.86

Sure, the documented Biodistribution, Mean, muscle for CCN(CC)CCNC(=O)c1cccc2cc3cccc(I)c3nc12 [compound 102, dihydrochloride] is 1.34

* * *

System: grafted B16 F0 murine melanoma tumour
Experimental details: Biodistribution of the ^125I-labelled molecules in the melanoma-bearing mouse (autoradiography of whole-body sections)
Run parameters: muscle; 1 H
Structures can show the parent of a compound that is named as a salt.
Recorded endpoint: Biodistribution, Mean, muscle
The reply should be a number, written without any unit.

// recorded Biodistribution, Mean, muscle for CCN(CC)CCNC(=O)c1c[nH]c2ccc(I)cc2c1=O [compound 35, dihydrochloride] : 0.92

For CCCN(CCC)CCCCNC(=O)c1ccc2cc(I)ccc2n1 [compound 49, dihydrochloride] the molecule record lists Biodistribution, Mean, muscle as 2.00

Biodistribution, Mean, muscle in this record for CCN(CC)CCNC(=O)c1cccc2cc3cccc(I)c3nc12 [compound 102, dihydrochloride] : 2.34

Sample "CCN(CC)CCNC(=O)c1ccc2cncc(I)c2n1.Cl.Cl" ; Biodistribution, Mean, muscle observed: 0.86

Measured Biodistribution, Mean, muscle, "CCN(CC)CCNC(=O)c1cnc2cc(I)ccc2n1.Cl.Cl" : 2.04

The reported value for CCN(CC)CCNC(=O)c1cc2c(I)cccc2cn1 [compound 39, dihydrochloride] in terms of Biodistribution, Mean, muscle is 0.74

Measured Biodistribution, Mean, muscle, CCN(CC)CCNC(=O)c1cccc2cc3cc(I)ccc3nc12 [compound 111, dihydrochloride] : 0.30
